- Test name: Apparent permeability of the compound in pig LLC-PK1 cells
- Type: ADME, cell-based, Sus scrofa
Metric name: Papp (×10⁻⁶ cm/s)

A = CC(=O)N[C@@H](Cc1cccc(C(F)(F)F)c1)[C@H](O)CN[C@H]1CC2(CCC2)Oc2ncc(CC(C)(C)C)cc21
B = COc1ccc(C[C@H](NC(C)=O)[C@H](O)CN[C@H]2CC3(CCC3)Oc3ncc(CC(C)(C)C)cc32)cc1F
C = CC(=O)N[C@@H](Cc1ccc(C)c(F)c1)[C@H](O)CN[C@H]1CC2(CCC2)Oc2ncc(CC(C)(C)C)cc21
Input line: Using the list above, order everything by rising Papp. Form entry: ranked labels (order as requested).
Output line: A, C, B
(A: 12 ×10⁻⁶ cm/s, C: 18 ×10⁻⁶ cm/s, B: 28 ×10⁻⁶ cm/s)

I = CC(=O)N[C@@H](Cc1ccc(F)c(OC(F)(F)F)c1)[C@H](O)CN[C@H]1CC2(CCC2)Oc2ncc(CC(C)(C)C)cc21
II = CC(=O)N[C@@H](Cc1ccc(F)cc1)[C@H](O)CN[C@H]1CC2(CCC2)Oc2ncc(CC(C)(C)C)cc21
Input line: Hi there, can you help? I need to know whether I or II has lower measured Papp. Field: selected label. Fill in the label of the entry you choose.
Output line: I
(I: 8.6 ×10⁻⁶ cm/s, II: 21 ×10⁻⁶ cm/s)

###

- Test name: Intrinsic clearance in rat liver microsomes at 1 uM after 30 mins
- Assay type: ADME, Microsome
- Test conditions: read-out: CLH
Metric name: microsomal CLint at 1 µM (µL/min/mg)

The examples below pair each entry with its known result.
- CC(=O)N[C@@H](Cc1ccc(F)cc1F)[C@H](O)CN[C@H]1CC2(CCC2)Oc2ncc(CC(C)(C)C)cc21: 173
- CC(=O)N[C@@H](Cc1ccc(OC(F)(F)F)cc1)[C@H](O)CN[C@H]1CC2(CCC2)Oc2ncc(CC(C)(C)C)cc21: 101
- CC(=O)N[C@@H](Cc1ccc(F)c(C#N)c1)[C@H](O)CN[C@H]1CC2(CCC2)Oc2ncc(CC(C)(C)C)cc21: 185
- CC(=O)N[C@@H](Cc1cccc(F)c1)[C@H](O)CN[C@H]1CC2(CCC2)Oc2ncc(CC(C)(C)C)cc21: 227

A = CC(=O)N[C@@H](Cc1cccc(C(F)(F)F)c1)[C@H](O)CN[C@H]1CC2(CCC2)Oc2ncc(CC(C)(C)C)cc21
B = COc1ccc(C[C@H](NC(C)=O)[C@H](O)CN[C@H]2CC3(CCC3)Oc3ncc(CC(C)(C)C)cc32)cc1F
Input line: Select the item with the higher value of microsomal CLint at 1 µM from the options A and B listed. Field: selected label. Fill in the label of the entry you choose.
Output line: B
(B: 258 µL/min/mg, A: 179 µL/min/mg)

###

- Test name: Drug level in wild type Sprague-Dawley rat brain at 100 mg/kg, po after 4 hrs
- Assay type: ADME, organism-based
- Set-up: dose 100 mg/kg, route oral
- Test conditions: read-out: Drug uptake
Metric name: concentration at 4 h (nM)
# unit: nM | format: bare number

What the record says about `CC(=O)N[C@@H](Cc1ccc(F)cc1)[C@H](O)CN[C@H]1CC2(CCC2)Oc2ncc(CC(C)(C)C)cc21` : concentration at 4 h is 660
